Ref: patent US11339130B1

Test system: Calpain activity in SH-SY5Y cells
Assay: SH-SY5Y + AMC fluorescence assay (Suc-LLVY-AMC substrate)
Type: cell-based
Conditions: read-out: SH-SY5Y + AMC IC50
pIC50: −log10 of the molar value.
recordedMetric: pIC50

The examples below pair each entry with its known result.
Cc1ccccc1-c1nn(C(F)F)cc1C(=O)NC(Cc1ccccc1)C(=O)C(N)=O (stereo not shown) [Compound 382]	> 5.00
COCCOCCOc1ccc(-n2nc(C)cc2C(=O)NC(Cc2ccccc2)C(=O)C(N)=O)cc1 (stereo not shown) [Compound 443]	4.60 to 5.00

Lab note: need pIC50 for Cc1cc(C(=O)NC(Cc2ccccc2)C(=O)C(=O)NC2CC2)n(-c2cnccn2)n1 (stereo not shown) [Compound 454] on Calpain activity in SH-SY5Y cells, anyone have it?
> 5.00

Request: Cc1nc(-c2ccccc2)c(C(=O)NC(Cc2ccccc2)C(=O)C(N)=O)o1 (stereo not shown) [Compound 357]
> 5.00
